Test: CytoTox-ONE LDH release cytotoxicity assay, CEM
Type: cell-based
Details: human, CEM cells, read-out: TC50 (toxic concentration decreasing cell viability by 50%)
Procedure: CytoTox-ONE™ homogeneous membrane integrity assay kits (Promega) was used in the cytotoxicity studies. The assay measured the release of lactate dehyrodegenase (LDH) from cells with damaged membranes in a fluorometric, homogeneous format. […] The amount of fluorescence produced is proportional to the number of lysed cells. The cytotoxicity assessment assay was performed using a designed plate format […] for allocation of media, drug, cells, and virus in a 96 well plate. […]
recordedMetric: CC50 (µM)
Numbers only, in µM.

(Q) # get_value(readout='CC50', item= CCCCCCCCCCCCCCCCCCOCCOP(=O)(O)OC[C@H]1O[C@@H](n2cnc(C(N)=O)n2)[C@H](O)[C@@H]1O [(ODE) phosphodiester ribavirin prodrug] )
(A) 14.1
